test system: HepG2; assay: Induction of glucose uptake in human HepG2 cells incubated for 24 hrs in low glucose medium; format: functional, cell-based
Recorded endpoint: Activity

O=C(Cn1cc(COc2cc(O)c3c(=O)c4ccc(Br)cc4oc3c2)nn1)Nc1ccc(O)c(O)c1
Dose-dependent effect
COc1ccc(NC(=O)Cn2cc(COc3cc(OC(C)=O)c4c(=O)c5ccc(Br)cc5oc4c3)nn2)c(OC)c1
Dose-dependent effect
COc1ccc(NC(=O)Cn2cc(COc3cc(O)c4c(=O)c5ccc(OC)cc5oc4c3)nn2)c(OC)c1
Dose-dependent effect
O=C(Cn1cc(COc2cc(O)c3c(=O)c4ccc(O)cc4oc3c2)nn1)Nc1ccc(O)c(O)c1
Dose-dependent effect

* * *

Known IC50 of a selection of compounds
target: Alpha glucosidase (Homo sapiens, UniProt O43451+P10253+P14410+Q2M2H8); assay: Inhibition of alpha-glucosidase (unknown origin) using PNP glucoside as substrate preincubated for 30 mins followed by substrate addition further incubated for 1 min by spectrophotometry; type: protein assay
A number alone suffices; assume µM.

COc1ccc(NC(=O)Cn2cc(COc3cc(O)c4c(=O)c5ccc(Br)cc5oc4c3)nn2)cc1OC
11.82

Problem: Given the entry COc1ccc2c(=O)c3c(OC(C)=O)cc(OCc4cn(CC(=O)Nc5ccc(OC)c(OC)c5)nn4)cc3oc2c1 , report its measured IC50.
Result: 98.63

* * *

molecular target: Alpha glucosidase (Homo sapiens, UniProt O43451+P10253+P14410+Q2M2H8); assay: Inhibition of alpha-glucosidase (unknown origin) using PNP glucoside as substrate preincubated for 30 mins followed by substrate addition further incubated for 1 min by spectrophotometry; assay type: protein assay
Below: a set of entries, each annotated with reported IC50.
Note: unit µM is implicit; provide only the numeric part.

In the examples that follow, each entry is paired with its recorded IC50.
COc1ccc(NC(=O)Cn2cc(COc3cc(O)c4c(=O)c5ccc(Br)cc5oc4c3)nn2)c(OC)c1
2.78
COc1ccc2c(=O)c3c(O)cc(OCc4cn(CC(=O)Nc5ccc(OC)c(OC)c5)nn4)cc3oc2c1
15.9

Problem: Give the measured IC50 of O=C(Cn1cc(COc2cc(O)c3c(=O)c4ccc(O)cc4oc3c2)nn1)Nc1ccc(O)cc1O .
Result: 17.61

Problem: Reported IC50 for COc1ccc(NC(=O)Cn2cc(COc3cc(O)c4c(=O)c5cc(OC)ccc5oc4c3)nn2)c(OC)c1 : what is it?
Result: 8.31

Problem: Any idea what IC50 was measured for COc1ccc(NC(=O)Cn2cc(COc3cc(OC(C)=O)c4c(=O)c5ccc(Br)cc5oc4c3)nn2)cc1OC ?
Result: 26.11
